# ASSAY_TEXT: yeast display, Sf9 membrane polyspecificity reagent, FACS + sequencing; frameworks hold sequencing errors
VALUE_KIND: polyreactivity (PSR sort gate)

{"columns": ["RECORD_SEQUENCE", "VALUE_KIND", "OBSERVED_MEASUREMENT"],
 "data": [
  ["QVQLVESGGGLVQAGGSLRLSCAASGFIFDQYAMGWYRQAPGKERELVATITSDGDTYYADSVKGRFTISRDNAKNTVYLHMISLKPEDSAVYYCAVEPGPYTTGYDYWGQGTQVTVSS", "polyreactivity (PSR sort gate)", "low polyreactivity"],
  ["QVQLVESGGGLVQAGGSLRLSCAASGSIFGSNTMGWYRQAPGKEREFVAAISFSGGSTYYADSVKGRFTISRDNAKNTVYLQLNSLKPEDTAVYYWAARQSRVGTSFYYSRRDYWGQGTEVTVSS", "polyreactivity (PSR sort gate)", "high polyreactivity"],
  ["QVQLVESGGGVLQAGGSLRLSCAASGSTFAFYAMVRYREAPGKVRELVAAISRSGGRTYYADSVKGRFTISRDNAKNTVYLQMNSLIPEDTAVYYCAAPSGITTGPHREYDYWGLGTQVTVSS", "polyreactivity (PSR sort gate)", "high polyreactivity"],
  ["QVQLVESGGGLVQAGGSLRLSCAASGSILRSYAMGWYRQAPGKERELVAVINGSGGRTYYADSVKGRFTISRDNAKNTVYLQMNSLKPEDTAVYYCNKRYRFTGIRDPFDYWGQGTQVTVSS", "polyreactivity (PSR sort gate)", "low polyreactivity"],
  ["QVQLVESGGGIVQAGGSLRLSCAASGSISAYYAMGWYRQAPGNERELVAAISWNGGRTYYADSVKGRFTISRDNAKNSVYLQMNSLKPEDTAVYYCAASPYYVVSTGGYDYDYWGQGTQVTVSS", "polyreactivity (PSR sort gate)", "high polyreactivity"],
  ["QVQLVESGGGLVQAGGSLRLSCAASGFIFGLNAMGWYRPAPGKERELVAAISYNGGSTYYADSVKGRFTISRDNAKNTVYLQMNSLKPEDTAVDYCNAYLYRKVGYRAYDYWGHGTQVTVSS", "polyreactivity (PSR sort gate)", "low polyreactivity"],
  ["QVQLVESGGGLVQAGGSLRLSCAASGRTFGLYAMGWYRQAPGKERELVAAISWGGGRTYYADSVKGRFTISRDNAKNTVYLQMNSLKPEDNAVYYCNAVYSPRYYVGGYDYWGQGTQVTVSS", "polyreactivity (PSR sort gate)", "high polyreactivity"],
  ["QVQLVESGGGLVQAGGSLRLSCAASGRTFRWYAMGWYRQAPGKERELVAAITSGGGTYYADSVKGRFTIARDNAKNTVYLQMNSLKPEDTAVYYCNKLHRDRYDYWGQGTQVTVSS", "polyreactivity (PSR sort gate)", "high polyreactivity"],
  ["QVQLVESGGGLVQAGGSLRLRGAAAGYNFLRYAIGWYRQAPGTERELVAAITNTGNTNYADSVKGRFTISRDNAKNTVYLQMNSLKPEDTAVYSCAAEYYWYSWKNRYKEYDYWGQGTQVTLSS", "polyreactivity (PSR sort gate)", "low polyreactivity"],
  ["QVQLVESGGGLVQAGGSLRLSCAASGRIFTGNVMGWYRQAPGKERELVAAITYRRGSTYYADSVKGRFTISRDNAKNTVYLQMNSLKPEDSAVYYCNTGWDPYGYDYWGQGTQVTVSS", "polyreactivity (PSR sort gate)", "low polyreactivity"]
]}

###

# ASSAY_TEXT: yeast display, Sf9 membrane polyspecificity reagent, FACS + sequencing; frameworks hold sequencing errors
VALUE_KIND: polyreactivity (PSR sort gate)

{"columns": ["RECORD_SEQUENCE", "OBSERVED_MEASUREMENT"],
 "data": [
  ["QVQLVESGGGLVQAGGSLRLSCAASGRIFVINDMGWYRKATGKERELVAAITWGSSTYADSVKGRFTISRDNAKNTVYLQMNSLKPEDTAVYYCARDVYPSTWEYDYWGQGTQVTVSS", "low polyreactivity"],
  ["QVQLVESGGGLVQAGGSLSLSCADSAGTFKTNAKGWYRQAPGKERELVAAITGSGTSTYYADSVKGRFTSSRDNAKNTVYFQMNSLKPEDTAVYYCAADKLYQPGIGDDYWGQGTQVTLSS", "low polyreactivity"],
  ["QVQLVESGGGLVQAGGSLRLSCAASGRTLLPNALGWYRQAPGKERELVASIRDGGDTNYADSVKGRFTISRDNAKKTVYLQMNSLQPEDTGVYYCNADWWAYYSFGHEYWGLGTQVTVSS", "low polyreactivity"]
]}

###

# ASSAY_TEXT: yeast display, Sf9 membrane polyspecificity reagent, FACS + sequencing; frameworks hold sequencing errors

{"columns": ["RECORD_SEQUENCE", "polyreactivity (PSR sort gate)"],
 "data": [
  ["QVQLVESGGGLVQAGGSLRLSCAASGFTFSYNAMGWYRQAPGKERELVAAISSTGTSTYYADSVKGRFTISRDNAKNTVYLQMISLKPEDTAVYYCNAYGYDGYYAGRHGYWGQGTQVTVSS", "low polyreactivity"],
  ["QVQLVESGGGLVQAGGSLRLSCAASGRIFLTNTMGWYRQAPGKERELVAGISRGGRTYDADSVKGRFTISRDNAKNTVYLLKNSLKPEDTAVYYCAGRHRTPIYPYKRDYWGQGTQVSVSS", "high polyreactivity"],
  ["QVQLVESGGGLVQAGGSLRLSCAASGRIFHHNVMGWYRPAPGKERELVAAISQSGGSTYYADSVKGRFTISRDNAKYTVYVQMNSLKPEDTAVYYCNAGAAGRRYNYWGQGTQVTVSS", "low polyreactivity"],
  ["QVQLQDSGVGLVQAGGSLRLSCAASGTISYRYRMGSYRQAPRKELELVAGISFGSITYNADSVKGRFTISRDNAKNTVYLQMNSLKPEDIAVYYCAVYQKSYRFFPYWGQGTQVTVSS", "high polyreactivity"],
  ["QVKLVESGAGLVQAGGSLRLSCAASALSFYYYAMGWYRQAPGKERELVASITGGDSTNYADSVKGRFTISRDNAKNTVYLQMNSLKPEETAVYYCADEFYVSSYGYRTYDYYYWGQGTQVTVSS", "low polyreactivity"],
  ["QVQLVESGGGLVQAGGSLRLSCAASGNTFYQYAMGWYRQAPGKERELVAAIDWSGGSTYADSVKGRFTISRDNAKNTVYLQMNSLKPEDTAVYYCNASVKPSNVWSRGYDYWGQGTQVTVSS", "low polyreactivity"],
  ["QVQLVESGGGLVQAGASLRLSCAASGSTFYIYAMGWYRQAPGKERELVAGISSGSTYYADSVKGRFTISRDNAKNTVYLQMNSLKPEVTAVYYCAVDSYYFLKDPISYGLYYYWGQGTQVTVSS", "low polyreactivity"],
  ["QVQLVESGGGLVQTGGSLRLSCAASGSTYYYYAMGWSRPAPGKERELVAGISWGGGSTYFADSVKGRFTISRDNAMNSVYLQMNSLKPEDTAVYYCNALNPKSYDYWGQGTQVTVSS", "low polyreactivity"],
  ["QVQLVESGGGLVKAGGSLRLSCAASGSIFKGNVMGWYRQAPGKERELVAGINWSSGRTYYADSVKGRFTISRDNAKNTVYLQMNSLNPEDTAVYYCNAPQYFSYSWPYPREYDYWGQGTQVNVSS", "high polyreactivity"],
  ["QVQLVESGGGLVQAGGSLRLSCAASGSTFFVYAMGWYRQAPGKERELVATISSAASTYYADSVKGRFTISRDNAKNTVYLQMNSLKPEDTAVYYCAAGYFIRTRSRYRYDYWGQGTQVTVSS", "high polyreactivity"],
  ["QVQLVESGGGLVQAGGSLRLSCAASGRTIRYNAMGWYRHAPGKERELVAAITGSGGSTYYADSVKGRFTISRDNAKNTVYLQMNSLKPEDTAAYSCNAVGIWFPIRLIVPYDYWGQGTQVTVSS", "low polyreactivity"]
]}

###

# ASSAY_TEXT: yeast display, Sf9 membrane polyspecificity reagent, FACS + sequencing; frameworks hold sequencing errors
VALUE_KIND: polyreactivity (PSR sort gate)

{"columns": ["RECORD_SEQUENCE", "VALUE_KIND", "OBSERVED_MEASUREMENT"],
 "data": [
  ["QVQLVESGGGLVQAGGSLRLSCAASGSTFYPTAMGWYRQAPGKERELVAAIRVRGGSTYYADSVKGRYTISRDNAKNTVYLKRNCLKPEDTAVYYCNADTFSSFGWGQGTQVTVSS", "polyreactivity (PSR sort gate)", "low polyreactivity"],
  ["QVQLVESGGGLDQAGGSLRLSCAASGGIFVGYAMGWYRQSPGKERELVASISSGGSTKYADSVKGRFTISRDNAKNTVYLQMNSLKPEDTAVYYCAATDTEGIDARYASVPTSYDYWGQGTQVTVSS", "polyreactivity (PSR sort gate)", "low polyreactivity"],
  ["QVQLVESVGGIVQAGGSLRLSCDASGRTFGRSAMGSYRQAPGKERELVAGISRAGDSTHYAESVKGRCTISRDNAKNTVYLQMNSLKPEDTAVYYCNKETPTIGARKYEYWGQGTQVTVSS", "polyreactivity (PSR sort gate)", "low polyreactivity"]
]}
